test system: Mycobacterium tuberculosis Erdman (autoluminescent); test: FIC50 (Loewe) at 50% inhibition (log2); higher = more antagonistic; settings: in vitro model: acidic pH 5.7; time point: terminal (~4-5 doublings, model-specific)
metric: FIC50
No unit in the answer, only the number.

Reference set, count: 3
compound | test system | FIC50
NNC(=O)c1ccncc1 [isoniazid] + CC(=O)NC[C@H]1CN(c2ccc(N3CCOCC3)c(F)c2)C(=O)O1 [linezolid] | Mycobacterium tuberculosis Erdman (autoluminescent) | 0.877
CC(=O)NC[C@H]1CN(c2ccc(N3CCOCC3)c(F)c2)C(=O)O1 [linezolid] + CO[C@H]1/C=C/O[C@@]2(C)Oc3c(C)c(O)c4c(O)c(c(/C=N/N5CCN(C)CC5)c(O)c4c3C2=O)NC(=O)/C(C)=C\C=C\[C@H](C)[C@H](O)[C@@H](C)[C@@H](O)[C@@H](C)[C@H](OC(C)=O)[C@@H]1C [rifampicin] | Mycobacterium tuberculosis Erdman (autoluminescent) | 0.31
COc1nc2ccc(Br)cc2cc1[C@@H](c1ccccc1)[C@@](O)(CCN(C)C)c1cccc2ccccc12 [bedaquiline] + CC(=O)NC[C@H]1CN(c2ccc(N3CCOCC3)c(F)c2)C(=O)O1 [linezolid] | Mycobacterium tuberculosis Erdman (autoluminescent) | 0.322

Given the entry CC(C)/N=c1\cc2n(-c3ccc(Cl)cc3)c3ccccc3nc-2cc1Nc1ccc(Cl)cc1 [clofazimine] + CO[C@H]1/C=C/O[C@@]2(C)Oc3c(C)c(O)c4c(O)c(c(/C=N/N5CCN(C)CC5)c(O)c4c3C2=O)NC(=O)/C(C)=C\C=C\[C@H](C)[C@H](O)[C@@H](C)[C@@H](O)[C@@H](C)[C@H](OC(C)=O)[C@@H]1C [rifampicin] , report its measured FIC50.
0.0811

Also CC[C@@H](CO)NCCN[C@@H](CC)CO [ethambutol] + NNC(=O)c1ccncc1 [isoniazid] , if possible.
0.67

Also COc1nc2ccc(Br)cc2cc1[C@@H](c1ccccc1)[C@@](O)(CCN(C)C)c1cccc2ccccc12 [bedaquiline] + O=[N+]([O-])c1cn2c(n1)OC[C@@H](OCc1ccc(OC(F)(F)F)cc1)C2 [pretomanid] , if possible.
0.169

Also CC[C@@H](CO)NCCN[C@@H](CC)CO [ethambutol] + CO[C@H]1/C=C/O[C@@]2(C)Oc3c(C)c(O)c4c(O)c(c(/C=N/N5CCN(C)CC5)c(O)c4c3C2=O)NC(=O)/C(C)=C\C=C\[C@H](C)[C@H](O)[C@@H](C)[C@@H](O)[C@@H](C)[C@H](OC(C)=O)[C@@H]1C [rifampicin] , if possible.
0.0255

Also CC(C)/N=c1\cc2n(-c3ccc(Cl)cc3)c3ccccc3nc-2cc1Nc1ccc(Cl)cc1 [clofazimine] + O=[N+]([O-])c1cn2c(n1)OC[C@@H](OCc1ccc(OC(F)(F)F)cc1)C2 [pretomanid] , if possible.
-0.167

Also COc1nc2ccc(Br)cc2cc1[C@@H](c1ccccc1)[C@@](O)(CCN(C)C)c1cccc2ccccc12 [bedaquiline] + CC[C@@H](CO)NCCN[C@@H](CC)CO [ethambutol] , if possible.
0.595

---

Here, each record is paired with measured Einf data.
system: Mycobacterium tuberculosis Erdman (autoluminescent); experiment: Einf, fitted maximum growth inhibition of three-drug combination (fraction); higher = stronger maximal inhibition; conditions: in vitro model: acidic pH 5.7; time point: constant (~7 days, model-specific)
No unit in the answer, only the number.

Reference set, count: 3
compound | Einf
CC(=O)NC[C@H]1CN(c2ccc(N3CCOCC3)c(F)c2)C(=O)O1 [linezolid] + O=[N+]([O-])c1cn2c(n1)OC[C@@H](OCc1ccc(OC(F)(F)F)cc1)C2 [pretomanid] + CO[C@H]1/C=C/O[C@@]2(C)Oc3c(C)c(O)c4c(O)c(c(/C=N/N5CCN(C)CC5)c(O)c4c3C2=O)NC(=O)/C(C)=C\C=C\[C@H](C)[C@H](O)[C@@H](C)[C@@H](O)[C@@H](C)[C@H](OC(C)=O)[C@@H]1C [rifampicin] | 0.893
CC(C)/N=c1\cc2n(-c3ccc(Cl)cc3)c3ccccc3nc-2cc1Nc1ccc(Cl)cc1 [clofazimine] + CC(=O)NC[C@H]1CN(c2ccc(N3CCOCC3)c(F)c2)C(=O)O1 [linezolid] + O=[N+]([O-])c1cn2c(n1)OC[C@@H](OCc1ccc(OC(F)(F)F)cc1)C2 [pretomanid] | 0.845
CC[C@@H](CO)NCCN[C@@H](CC)CO [ethambutol] + O=[N+]([O-])c1cn2c(n1)OC[C@@H](OCc1ccc(OC(F)(F)F)cc1)C2 [pretomanid] + CO[C@H]1/C=C/O[C@@]2(C)Oc3c(C)c(O)c4c(O)c(c(/C=N/N5CCN(C6CCCC6)CC5)c(O)c4c3C2=O)NC(=O)/C(C)=C\C=C\[C@H](C)[C@H](O)[C@@H](C)[C@@H](O)[C@@H](C)[C@H](OC(C)=O)[C@@H]1C [rifapentine] | 0.881

Given the entry COc1c(N2C[C@@H]3CCCN[C@@H]3C2)c(F)cc2c(=O)c(C(=O)O)cn(C3CC3)c12 [moxifloxacin] + O=[N+]([O-])c1cn2c(n1)OC[C@@H](OCc1ccc(OC(F)(F)F)cc1)C2 [pretomanid] + NC(=O)c1cnccn1 [pyrazinamide] , report its measured Einf.
0.831

Also CC[C@@H](CO)NCCN[C@@H](CC)CO [ethambutol] + O=[N+]([O-])c1cn2c(n1)OC[C@@H](OCc1ccc(OC(F)(F)F)cc1)C2 [pretomanid] + NC(=O)c1cnccn1 [pyrazinamide] , if possible.
0.735

Also COc1nc2ccc(Br)cc2cc1[C@@H](c1ccccc1)[C@@](O)(CCN(C)C)c1cccc2ccccc12 [bedaquiline] + CC(C)/N=c1\cc2n(-c3ccc(Cl)cc3)c3ccccc3nc-2cc1Nc1ccc(Cl)cc1 [clofazimine] + CO[C@H]1/C=C/O[C@@]2(C)Oc3c(C)c(O)c4c(O)c(c(/C=N/N5CCN(C)CC5)c(O)c4c3C2=O)NC(=O)/C(C)=C\C=C\[C@H](C)[C@H](O)[C@@H](C)[C@@H](O)[C@@H](C)[C@H](OC(C)=O)[C@@H]1C [rifampicin] , if possible.
0.926

---

tested on: Mycobacterium tuberculosis Erdman (autoluminescent); test: Einf, fitted maximum growth inhibition of three-drug combination (fraction); higher = stronger maximal inhibition; details: in vitro model: butyrate; time point: constant (~7 days, model-specific)
metric: Einf
No unit in the answer, only the number.

Reference set, count: 6
compound | Einf
COc1nc2ccc(Br)cc2cc1[C@@H](c1ccccc1)[C@@](O)(CCN(C)C)c1cccc2ccccc12 [bedaquiline] + COc1c(N2C[C@@H]3CCCN[C@@H]3C2)c(F)cc2c(=O)c(C(=O)O)cn(C3CC3)c12 [moxifloxacin] + CO[C@H]1/C=C/O[C@@]2(C)Oc3c(C)c(O)c4c(O)c(c(/C=N/N5CCN(C6CCCC6)CC5)c(O)c4c3C2=O)NC(=O)/C(C)=C\C=C\[C@H](C)[C@H](O)[C@@H](C)[C@@H](O)[C@@H](C)[C@H](OC(C)=O)[C@@H]1C [rifapentine] | 0.952
CC(=O)NC[C@H]1CN(c2ccc(N3CCOCC3)c(F)c2)C(=O)O1 [linezolid] + COc1c(N2C[C@@H]3CCCN[C@@H]3C2)c(F)cc2c(=O)c(C(=O)O)cn(C3CC3)c12 [moxifloxacin] + NC(=O)c1cnccn1 [pyrazinamide] | 0.891
COc1nc2ccc(Br)cc2cc1[C@@H](c1ccccc1)[C@@](O)(CCN(C)C)c1cccc2ccccc12 [bedaquiline] + CC(=O)NC[C@H]1CN(c2ccc(N3CCOCC3)c(F)c2)C(=O)O1 [linezolid] + COc1c(N2C[C@@H]3CCCN[C@@H]3C2)c(F)cc2c(=O)c(C(=O)O)cn(C3CC3)c12 [moxifloxacin] | 0.936
CC(C)/N=c1\cc2n(-c3ccc(Cl)cc3)c3ccccc3nc-2cc1Nc1ccc(Cl)cc1 [clofazimine] + CC[C@@H](CO)NCCN[C@@H](CC)CO [ethambutol] + CO[C@H]1/C=C/O[C@@]2(C)Oc3c(C)c(O)c4c(O)c(c(/C=N/N5CCN(C)CC5)c(O)c4c3C2=O)NC(=O)/C(C)=C\C=C\[C@H](C)[C@H](O)[C@@H](C)[C@@H](O)[C@@H](C)[C@H](OC(C)=O)[C@@H]1C [rifampicin] | 0.95
COc1nc2ccc(Br)cc2cc1[C@@H](c1ccccc1)[C@@](O)(CCN(C)C)c1cccc2ccccc12 [bedaquiline] + CC(C)/N=c1\cc2n(-c3ccc(Cl)cc3)c3ccccc3nc-2cc1Nc1ccc(Cl)cc1 [clofazimine] + CO[C@H]1/C=C/O[C@@]2(C)Oc3c(C)c(O)c4c(O)c(c(/C=N/N5CCN(C6CCCC6)CC5)c(O)c4c3C2=O)NC(=O)/C(C)=C\C=C\[C@H](C)[C@H](O)[C@@H](C)[C@@H](O)[C@@H](C)[C@H](OC(C)=O)[C@@H]1C [rifapentine] | 0.948
COc1nc2ccc(Br)cc2cc1[C@@H](c1ccccc1)[C@@](O)(CCN(C)C)c1cccc2ccccc12 [bedaquiline] + NC(=O)c1cnccn1 [pyrazinamide] + CO[C@H]1/C=C/O[C@@]2(C)Oc3c(C)c(O)c4c(O)c(c(/C=N/N5CCN(C)CC5)c(O)c4c3C2=O)NC(=O)/C(C)=C\C=C\[C@H](C)[C@H](O)[C@@H](C)[C@@H](O)[C@@H](C)[C@H](OC(C)=O)[C@@H]1C [rifampicin] | 0.967

Given the entry COc1nc2ccc(Br)cc2cc1[C@@H](c1ccccc1)[C@@](O)(CCN(C)C)c1cccc2ccccc12 [bedaquiline] + CC(=O)NC[C@H]1CN(c2ccc(N3CCOCC3)c(F)c2)C(=O)O1 [linezolid] + CO[C@H]1/C=C/O[C@@]2(C)Oc3c(C)c(O)c4c(O)c(c(/C=N/N5CCN(C)CC5)c(O)c4c3C2=O)NC(=O)/C(C)=C\C=C\[C@H](C)[C@H](O)[C@@H](C)[C@@H](O)[C@@H](C)[C@H](OC(C)=O)[C@@H]1C [rifampicin] , report its measured Einf.
0.914

Also COc1nc2ccc(Br)cc2cc1[C@@H](c1ccccc1)[C@@](O)(CCN(C)C)c1cccc2ccccc12 [bedaquiline] + NNC(=O)c1ccncc1 [isoniazid] + CO[C@H]1/C=C/O[C@@]2(C)Oc3c(C)c(O)c4c(O)c(c(/C=N/N5CCN(C)CC5)c(O)c4c3C2=O)NC(=O)/C(C)=C\C=C\[C@H](C)[C@H](O)[C@@H](C)[C@@H](O)[C@@H](C)[C@H](OC(C)=O)[C@@H]1C [rifampicin] , if possible.
0.946

Also CC(=O)NC[C@H]1CN(c2ccc(N3CCOCC3)c(F)c2)C(=O)O1 [linezolid] + NC(=O)c1cnccn1 [pyrazinamide] + CO[C@H]1/C=C/O[C@@]2(C)Oc3c(C)c(O)c4c(O)c(c(/C=N/N5CCN(C6CCCC6)CC5)c(O)c4c3C2=O)NC(=O)/C(C)=C\C=C\[C@H](C)[C@H](O)[C@@H](C)[C@@H](O)[C@@H](C)[C@H](OC(C)=O)[C@@H]1C [rifapentine] , if possible.
0.892

Also COc1nc2ccc(Br)cc2cc1[C@@H](c1ccccc1)[C@@](O)(CCN(C)C)c1cccc2ccccc12 [bedaquiline] + CC(=O)NC[C@H]1CN(c2ccc(N3CCOCC3)c(F)c2)C(=O)O1 [linezolid] + CO[C@H]1/C=C/O[C@@]2(C)Oc3c(C)c(O)c4c(O)c(c(/C=N/N5CCN(C6CCCC6)CC5)c(O)c4c3C2=O)NC(=O)/C(C)=C\C=C\[C@H](C)[C@H](O)[C@@H](C)[C@@H](O)[C@@H](C)[C@H](OC(C)=O)[C@@H]1C [rifapentine] , if possible.
0.921

Origin of the recorded values: the supplement of paper PMC8617591
